- target desc: XIAP-BIR3 (Homo sapiens (Human), UniProt P98170)
- Sequence (P98170 241-356): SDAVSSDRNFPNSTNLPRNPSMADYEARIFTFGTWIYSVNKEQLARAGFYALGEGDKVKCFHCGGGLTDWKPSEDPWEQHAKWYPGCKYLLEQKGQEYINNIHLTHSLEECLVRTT
- experimental details: BIR binding assay (FRET competition), XIAP BIR3
- settings: fold separation (FS) for XIAP
recorded metric: XIAP BIR3 vs BIR2 separation window

* C[C@@H]1CN(CC(=O)N2CC(C)(C)c3[nH]c(=O)c(Cc4ccc(F)cc4)cc32)[C@@H](CN2CCO[C@H](COc3ccc(F)c(OC[C@@H]4CN(C[C@H]5CN[C@H](C)CN5CC(=O)N5CC(C)(C)c6[nH]c(=O)c(Cc7ccc(F)cc7)cc65)CCO4)c3)C2)CN1 [Example 75] | ++++ (FS>10,000)
* C[C@@H]1CN(CC(=O)N2CC(C)(C)c3[nH]c(=O)c(Cc4ccccc4)cc32)[C@@H](CN2CCO[C@H](C(=O)NCc3ccc(CNC(=O)[C@@H]4CN(C[C@H]5CN[C@H](C)CN5CC(=O)N5CC(C)(C)c6[nH]c(=O)c(Cc7ccccc7)cc65)CCO4)cc3)C2)CN1 [Compound 186] | ++++ (FS>10,000)
* C[C@@H]1CN(CC(=O)N2CC(C)(C)c3[nH]c(=O)c(Cc4ccc(F)cc4F)cc32)[C@@H](CN2CCO[C@H](COc3cccc(OC[C@@H]4CN(C[C@H]5CN[C@H](C)CN5CC(=O)N5CC(C)(C)c6[nH]c(=O)c(Cc7ccc(F)cc7F)cc65)CCO4)c3)C2)CN1 [Compound 190] | ++++ (FS>10,000)

###

- target desc: cIAP2-BIR3 (Homo sapiens (Human), UniProt Q13489)
- Sequence (Q13489 238-349): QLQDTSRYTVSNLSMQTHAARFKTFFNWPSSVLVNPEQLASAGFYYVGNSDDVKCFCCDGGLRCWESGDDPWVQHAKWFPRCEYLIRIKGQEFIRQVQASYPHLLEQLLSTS
- experimental details: BIR binding assay (FRET competition), cIAP2 BIR3
recorded metric: IC50

For each of the molecules below, state IC50.
1. C[C@@H]1CN(CC(=O)N2CC(C)(C)c3[nH]c(=O)c(Cc4ccc(F)cc4)cc32)[C@@H](CN2CCO[C@H](C(=O)N(C)CC3CCN(C(=O)[C@@H]4CN(C[C@H]5CN[C@H](C)CN5CC(=O)N5CC(C)(C)c6[nH]c(=O)c(Cc7ccc(F)cc7)cc65)CCO4)CC3)C2)CN1
2. C[C@@H]1CN(CC(=O)N2CC(C)(C)c3[nH]c(=O)c(Cc4ccc(F)cc4)cc32)[C@@H](CN2CCO[C@@H](COCCCCOC[C@H]3CN(C[C@H]4CN[C@H](C)CN4CC(=O)N4CC(C)(C)c5[nH]c(=O)c(Cc6ccc(F)cc6)cc54)CCO3)C2)CN1
3. C[C@@H]1CN(CC(=O)N2CC(C)(C)c3[nH]c(=O)c(Cc4c(F)cc(F)cc4F)cc32)[C@@H](CN2CCO[C@H](C(=O)NCc3ccc(CNC(=O)[C@@H]4CN(C[C@H]5CN[C@H](C)CN5CC(=O)N5CC(C)(C)c6[nH]c(=O)c(Cc7c(F)cc(F)cc7F)cc65)CCO4)cc3)C2)CN1
4. C[C@@H]1CN(CC(=O)N2CC(C)(C)c3[nH]c(=O)c(Cc4ccc(F)cc4)cc32)[C@@H](CN2CCO[C@H](C(=O)NCCOCCOCCOCCNC(=O)[C@@H]3CN(C[C@H]4CN[C@H](C)CN4CC(=O)N4CC(C)(C)c5[nH]c(=O)c(Cc6ccc(F)cc6)cc54)CCO3)C2)CN1
5. C[C@@H]1CN(CC(=O)N2CC(C)(C)c3[nH]c(=O)c(Cc4ccc(F)cc4)cc32)[C@@H](CN2CCO[C@H](COc3ccc(Oc4cccc(Oc5ccc(OC[C@@H]6CN(C[C@H]7CN[C@H](C)CN7CC(=O)N7CC(C)(C)c8[nH]c(=O)c(Cc9ccc(F)cc9)cc87)CCO6)cc5)c4)cc3)C2)CN1
6. C[C@@H]1CN(CC(=O)N2CC(C)(C)c3[nH]c(=O)c(Cc4ccc(F)cc4)cc32)[C@@H](CN2CCO[C@@H](C(=O)NCc3ccc(CNC(=O)[C@H]4CN(C[C@H]5CN[C@H](C)CN5CC(=O)N5CC(C)(C)c6[nH]c(=O)c(Cc7ccc(F)cc7)cc65)CCO4)cc3)C2)CN1
7. C[C@@H]1CN(CC(=O)N2CC(C)(C)c3[nH]c(=O)c(Cc4ccc(F)cc4)cc32)[C@@H](CN2CCO[C@@H](COc3cccc(OC[C@H]4CN(C[C@H]5CN[C@H](C)CN5CC(=O)N5CC(C)(C)c6[nH]c(=O)c(Cc7ccc(F)cc7)cc65)CCO4)c3)C2)CN1

1: 0.00794 to 0.0158 µM; 2: 0.00794 to 0.0158 µM; 3: 0.00138 to 0.00794 µM; 4: 0.00794 to 0.0158 µM; 5: 0.0158 to 0.0316 µM; 6: 0.00794 to 0.0158 µM; 7: 0.00794 to 0.0158 µM

###

Please go through the items and note down their pIC50.
- target desc: cIAP1-BIR3 (Homo sapiens (Human), UniProt Q13490)
- Sequence (Q13490 253-363): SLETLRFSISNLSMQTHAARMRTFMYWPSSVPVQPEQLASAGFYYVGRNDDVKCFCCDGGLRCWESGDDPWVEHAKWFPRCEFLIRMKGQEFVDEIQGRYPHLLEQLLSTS
- experimental details: BIR binding assay (FRET competition), cIAP1 BIR3
- Method: The BIR domain binding assays are FRET based competition assays that utilize His-tagged versions of each of the BIR2 and BIR3 domains from cIAP1, cIAP2, and XIAP (each domain assayed separately) each at a custom optimal concentration and a probe, 200 nM SMAC/DIABLO peptide […] labelled with AlexaFluor647 (part #crb 1110326h, Discovery Peptides). The assay is conducted in 50 mM HEPES, […], 1 mM CHAPS, 5% Glycerol, 1 mM DTT, in dI water with a final pH of 7.4 and final volume of 20 uL. […]
pIC50: −log10 of the molar value.

Please review the following examples before continuing.
- C[C@@H]1CN(CC(=O)N2CC(C)(C)c3[nH]c(=O)c(Cc4ccc(F)cc4)cc32)[C@@H](CN2CCO[C@H](COc3ccccc3-c3ccccc3OC[C@@H]3CN(C[C@H]4CN[C@H](C)CN4CC(=O)N4CC(C)(C)c5[nH]c(=O)c(Cc6ccc(F)cc6)cc54)CCO3)C2)CN1: 7.80 to 8.10
- C[C@@H]1CN(CC(=O)N2CC(C)(C)c3[nH]c(=O)c(Cc4ccc(F)cc4)cc32)[C@@H](CN2CCO[C@H](C(=O)NCCCN3CCN(CCCNC(=O)[C@@H]4CN(C[C@H]5CN[C@H](C)CN5CC(=O)N5CC(C)(C)c6[nH]c(=O)c(Cc7ccc(F)cc7)cc65)CCO4)CC3)C2)CN1: 7.80 to 8.10
- C[C@@H]1CN(CC(=O)N2CC(C)(C)c3[nH]c(=O)c(Cc4c(Cl)cc(Cl)cc4Cl)cc32)[C@@H](CN2CCO[C@H](C(=O)NCc3ccc(CNC(=O)[C@@H]4CN(C[C@H]5CN[C@H](C)CN5CC(=O)N5CC(C)(C)c6[nH]c(=O)c(Cc7c(Cl)cc(Cl)cc7Cl)cc65)CCO4)cc3)C2)CN1: 6.30 to 7.50

The measured pIC50 associated with C[C@@H]1CN(CC(=O)N2CC(C)(C)c3[nH]c(=O)c(Cc4ccc(F)cc4)cc32)[C@@H](CN2CCN(CCCCCCCCCCCCN3CCN(C[C@H]4CN[C@H](C)CN4CC(=O)N4CC(C)(C)c5[nH]c(=O)c(Cc6ccc(F)cc6)cc54)[C@H](C)C3)C[C@H]2C)CN1 reads 6.30 to 7.50

###

- target desc: XIAP-BIR3 (Homo sapiens (Human))
- experimental details: BIR binding assay (FRET competition), XIAP BIR3
- settings: fold separation (FS) for XIAP
recorded metric: XIAP BIR3 vs BIR2 separation window

- C[C@@H]1CN(CC(=O)N2CC(C)(C)c3[nH]c(=O)c(Cc4ccc(F)cc4)cc32)[C@@H](CN2CCC[C@H](NC(=O)Cc3cccc(CC(=O)N[C@H]4CCCN(C[C@H]5CN[C@H](C)CN5CC(=O)N5CC(C)(C)c6[nH]c(=O)c(Cc7ccc(F)cc7)cc65)C4)c3)C2)CN1: +++ (10,000>FS>1,000)
- Cc1ccc(Oc2cc3c([nH]c2=O)C(C)(C)CN3C(=O)CN2C[C@@H](C)NC[C@@H]2CN2CCO[C@H](C(=O)NCc3ccc(CNC(=O)[C@@H]4CN(C[C@H]5CN[C@H](C)CN5CC(=O)N5CC(C)(C)c6[nH]c(=O)c(Oc7ccc(C)cc7)cc65)CCO4)cc3)C2)cc1: +++ (10,000>FS>1,000)

###

Please go through the items and note down their pIC50.
- target desc: cIAP2-BIR2 (Homo sapiens (Human))
- Sequence (Q13489 158-242): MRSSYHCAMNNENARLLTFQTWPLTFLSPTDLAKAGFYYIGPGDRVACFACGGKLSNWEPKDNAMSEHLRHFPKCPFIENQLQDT
- experimental details: BIR binding assay (FRET competition), cIAP2 BIR2
pIC50: −log10 of the molar value.

Please review the following examples before continuing.
- C[C@@H]1CN(CC(=O)N2CC(C)(C)c3[nH]c(=O)c(Cc4ccc(F)cc4)cc32)[C@@H](CN2CCO[C@H](C(=O)NCCCCCCCCNC(=O)[C@@H]3CN(C[C@H]4CN[C@H](C)CN4CC(=O)N4CC(C)(C)c5[nH]c(=O)c(Cc6ccc(F)cc6)cc54)CCO3)C2)CN1: 6.00 to 7.65
- C[C@@H]1CN(CC(=O)N2CC(C)(C)c3[nH]c(=O)c(Cc4ccc(F)cc4)cc32)[C@@H](CN2CCN(CCc3cn(CCCCC(=O)N4CCN(C[C@H]5CN[C@H](C)CN5CC(=O)N5CC(C)(C)c6[nH]c(=O)c(Cc7ccc(F)cc7)cc65)[C@H](C)C4)nn3)C[C@H]2C)CN1: 6.00 to 7.65
- C[C@@H]1CN(CC(=O)N2CC(C)(C)c3[nH]c(=O)c(Cc4ccc(F)cc4C#N)cc32)[C@@H](CN2CCO[C@H](C(=O)NCc3ccc(CNC(=O)[C@@H]4CN(C[C@H]5CN[C@H](C)CN5CC(=O)N5CC(C)(C)c6[nH]c(=O)c(Cc7ccc(F)cc7C#N)cc65)CCO4)cc3)C2)CN1: 5.50 to 6.00

In the following, a different molecule is considered.
The measured pIC50 associated with C[C@@H]1CN(CC(=O)N2CC(C)(C)c3[nH]c(=O)c(Cc4ccc(F)cc4)cc32)[C@@H](CN2CCC[C@H](NC(=O)Cc3cccc(CC(=O)N[C@H]4CCCN(C[C@H]5CN[C@H](C)CN5CC(=O)N5CC(C)(C)c6[nH]c(=O)c(Cc7ccc(F)cc7)cc65)C4)c3)C2)CN1 reads 5.00 to 5.50
